Tested on: MALME-3M melanoma
experiment.description: NCI-60 one-dose screen, 48 h
reported.conditions: 10 µM unless noted
The panel holds about 83,000 compounds, 20% with a hit somewhere; the sample as a whole holds those more often. Activity calls are given as the source filed them. Rule for the calls: active = growth percent below 10; inactive = the rest.
Answer with one of the outcomes active, inactive

Use these answered entries as a reference point.
O=C1COCCN1c1ccc(NCc2cn(Cc3ccccc3)c3ccccc23)cc1 | inactive
COc1ccc2c(c1)C(C)Cc1c(Cl)ncnc1N2C (stereo not drawn) | inactive
Ic1ccc2[nH]cc(SSc3c[nH]c4ccc(I)cc34)c2c1 | inactive
Cc1ccc(S(=O)(=O)n2cc(C(=O)C(=O)N3CCCCC3)c3ccccc32)cc1 | inactive
CC(C)OC(=O)Nc1cc(F)c(F)cc1F | inactive

Task: What did this assay record as the result for C=C(C)[C@@H]1CC[C@]2(C(=O)N3CCN(C)CC3)CC[C@]3(C)[C@H](CC[C@@H]4[C@@]5(C)C/C(=C/c6ccncc6)[C@H](O)C(C)(C)[C@@H]5CC[C@]43C)[C@@H]12 ?
Output: active

Task: What did this assay record as the result for O=C(O)c1cccc(CN2CCN(c3cc4c(cc3F)c(=O)c(C(=O)O)cn4C3CC3)CC2)c1O ?
Output: inactive

Task: What did this assay record as the result for C[C@@H]1C[C@H]2C(=O)O[C@@H](C)[C@H](NC(=O)[C@H](Cc3cc(F)cc(F)c3)NC(=O)Nc3ccc(Cl)cc3F)C(=O)N3C[C@H](O)C[C@H]3C(=O)N3CCN(C)C[C@H]3C(=O)N[C@@H](C)C(=O)N2C1 ?
Output: inactive

Task: What did this assay record as the result for C=CC1=C(C)C2=NC1=CC1=NC(=CC3=C(C)C4=C(O)C(C(=O)O)C(=C5NC(=C2)C(C)C5CCC(=O)O)C4=N3)C(CC)=C1C (stereo not drawn) ?
Output: inactive

Task: What did this assay record as the result for C=C(C)[C@@H]1CC[C@]2(C)[C@H](CC=C3[C@@H]4[C@@H](C)[C@H](C)CC[C@]4(C(N)=O)CC[C@]32C)[C@@]1(C)CCC#N ?
Output: active

###

System: MALME-3M melanoma
experiment.description: NCI-60 one-dose screen, 48 h
reported.conditions: 10 µM unless noted
The panel holds about 83,000 compounds, 20% with a hit somewhere; the sample as a whole holds those more often. Activity calls are given as the source filed them. How the source made its calls: active means growth percent below 10; inactive means the rest.
Answer with one of the outcomes TRUE for active, FALSE for inactive

Use these answered entries as a reference point.
CC[C@]1(O)CC2CN(CCc3c([nH]c4ccccc34)[C@@](C(=O)OC)(c3cc4c(cc3OC)N(C=O)[C@H]3[C@@](O)(C(=O)OC)[C@H](OC(C)=O)[C@]5(CC)C=CCN6CC[C@]43[C@@H]65)C2)C1 (some centres not stated) | FALSE
C[C@H]1[C@H](C)CC[C@]2(C(=O)O)CC[C@]3(C)C(=CC[C@@H]4[C@@]5(C)C/C(=C/c6ccco6)C(=O)C(C)(C)[C@@H]5CC[C@]43C)[C@H]12 | TRUE
C=C(C)[C@@H]1CC[C@]2(c3ncc(C)o3)CC[C@]3(C)[C@H](CC[C@@H]4[C@@](C)(CCC#N)[C@H](C(=C)C)CC[C@]43C)[C@@H]12 | TRUE
CC1Cc2c(Cl)ncnc2N(C)c2ccccc21 (configuration not stated) | TRUE
c1ccc(-c2nnc(-c3c[nH]c4ncccc34)s2)cc1 | FALSE

Task: What did this assay record as the result for CCOC(=O)c1cc(C(=O)c2ccc(OC)c(OC)c2)n2ccc(-c3ccccn3)cc12 ?
Output: FALSE

Task: What did this assay record as the result for C[C@H]1[C@H](C)CC[C@]2(C(=O)O)CC[C@]3(C)C(=CC[C@@H]4[C@@]5(C)C/C(=C/c6cccnc6)[C@H](O)C(C)(C)[C@@H]5CC[C@]43C)[C@H]12 ?
Output: TRUE

###

Tested on: MOLT-4 leukemia
experiment.description: NCI-60 one-dose screen, 48 h (100 = growth as untreated, 0 = no growth, -100 = all killed)
reported.conditions: 10 µM unless noted
The panel holds about 83,000 compounds, 20% with a hit somewhere; the sample as a whole holds those more often.
measurement.type: growth (%)
Give the value, in units of %, as a plain number.

The recorded growth for Cc1cc(-c2ccc(N=Nc3c(S(=O)(=O)O)cc4cc(S(=O)(=O)O)cc(N)c4c3O)c(C)c2)ccc1N=Nc1cc(S(=O)(=O)O)c2ccccc2c1O is 102

The recorded growth for Nc1ccc(NC(=O)c2ccccc2)c2c1C(=O)c1ccccc1C2=O is 106

The recorded growth for C[C@]12CCc3c(ccc4cc(O)ccc34)[C@@H]1CC[C@H]2O is 95.1

The recorded growth for C#C[C@]1(O)CC[C@H]2[C@@H]3CC=C4c5nc(Nc6ccc(OC)cc6OC)sc5CC[C@]4(C)[C@H]3CC[C@@]21C is 4.56

The recorded growth for O=C(Nc1ccc(F)cc1)c1ccccc1 is 97.8

The recorded growth for CCC(Br)(CC)C(=O)c1ccc(OCC(=O)O)c(Cl)c1Cl is 109

The recorded growth for CC[C@]1(O)CC2CN(CCc3c([nH]c4ccccc34)[C@@](C(=O)OC)(c3cc4c(cc3OC)N(C=O)[C@H]3[C@@](O)(C(=O)OC)[C@H](OC(C)=O)[C@]5(CC)C=CCN6CC[C@]43[C@@H]65)C2)C1 (stereo partly drawn) is 21.6

The recorded growth for Cc1ccc(-c2cc(-c3ccc(C)cc3)nc(N3CCN(CCNc4ccnc5cc(Cl)ccc45)CC3)n2)cc1 is 38.9

###

Tested on: SF-268 CNS
experiment.description: NCI-60 one-dose screen, 48 h
reported.conditions: 10 µM unless noted
The panel holds about 83,000 compounds, 20% with a hit somewhere; the sample as a whole holds those more often. Calls of active or inactive are those of the source. How the source made its calls: active means growth percent below 10; inactive means the rest.
Answer with one of the outcomes active, inactive

Task: What did this assay record as the result for CO[C@H]1CC[C@@]2(C)C(=CC[C@H]3[C@@H]4C[C@H](O)C[C@@]4(C)CC[C@@H]32)C1 ?
Output: inactive

Task: What did this assay record as the result for CCN(CC)c1ccc(/C=C/c2ccc3cc(C)ccc3[n+]2CC)cc1 ?
Output: inactive

Task: What did this assay record as the result for Cn1cc(-c2noc(-c3cn(C)c4ncc(F)cc34)n2)c2cc(Br)ccc21 ?
Output: inactive

Task: What did this assay record as the result for O=C1COCCN1c1ccc(Nc2nc(Cl)nc(N3CCOCC3)n2)cc1 ?
Output: inactive

Task: What did this assay record as the result for COc1cc(C(=O)/C=C/c2c(-c3ccc(F)cc3)nc3sccn23)cc(OC)c1OC ?
Output: inactive

Task: What did this assay record as the result for CC(=O)OC[C@]12CC[C@@H]([C@@H](C)C(N)=O)[C@@H]1[C@H]1CC[C@@H]3[C@@]4(C)CC[C@H](OC(C)=O)C(C)(C)[C@@H]4CC[C@@]3(C)[C@]1(C)CC2 ?
Output: active

Task: What did this assay record as the result for C[C@H]1[C@H](C)CC[C@]2(C(=O)O)CC[C@]3(C)C(=CC[C@@H]4[C@@]5(C)C/C(=C/c6ccco6)C(=O)C(C)(C)[C@@H]5CC[C@]43C)[C@H]12 ?
Output: active

###

Tested on: ACHN renal
experiment.description: NCI-60 one-dose screen, 48 h
reported.conditions: 10 µM unless noted
The panel holds about 83,000 compounds, 20% with a hit somewhere; the sample as a whole holds those more often. The source made the active and inactive calls. The calls were made as follows: active = growth percent below 10; inactive = the rest.
Answer with one of the outcomes Yes for active, No for inactive

COc1ccc(C(=O)CSc2nnc(-c3cc(-c4ccccc4)nc4ccccc34)o2)cc1 | No

Task: What did this assay record as the result for COc1ccc(NC(=S)NNc2ccc(-c3ccc(OC)c(OC)c3)nn2)cc1 ?
Output: No

###

Test system: NCI-H23 lung
experiment.description: NCI-60 one-dose screen, 48 h
reported.conditions: 10 µM unless noted
The panel holds about 83,000 compounds, 20% with a hit somewhere; the sample as a whole holds those more often. Calls of active or inactive are those of the source. How the source made its calls: active means growth percent below 10; inactive means the rest.
Answer with one of the outcomes true = active, false = inactive

Use these answered entries as a reference point.
Cc1ccc(-c2cc(-c3ccc(C)cc3)nc(NCCNc3ccnc4cc(Cl)ccc34)n2)cc1 | true
CC(C)C1=NOC(=O)C1=Cc1cn(-c2ccccc2)nc1-c1ccccc1 | false
C=C(C)[C@@H]1CC[C@]2(C)[C@H](C(=O)C=C3[C@@H]4C[C@](C)(C(=O)N5CCN(C)CC5)CC[C@]4(C)CC[C@]32C)[C@@]1(C)CCC#N | true
CCOC(=O)C(=Cc1ccccc1[N+](=O)[O-])C(=O)OCC | false
C=CC1=C(C)C2=NC1=CC1=NC(=CC3=C(C)C4=C(O)C(C(=O)O)C(=C5NC(=C2)C(C)C5CCC(=O)O)C4=N3)C(CC)=C1C (centres undefined) | false

Task: What did this assay record as the result for CC(C)CCSc1nc(N)nc2nc[nH]c12 ?
Output: false

Task: What did this assay record as the result for COCCCNc1nc(NC(=O)c2cc(Br)cc(C(F)(F)F)c2)cc(-c2cccnc2)n1 ?
Output: false

Task: What did this assay record as the result for COc1ccc(C2NC(=O)C(C#N)c3c2sc2c(F)cccc32)cc1 (centres undefined) ?
Output: false

Task: What did this assay record as the result for CCN(CC)c1ccc2cc(NC(=O)OCCNC(=O)CCNC(=O)[C@H](CC(C)C)NC(=O)C(C)(C)NC(=O)C(C)(C)NC(=O)[C@H](CC(C)C)NC(=O)CCNC(=O)C(C)(C)NC(=O)[C@H](CC(C)C)NC(=O)CCNC(=O)[C@@](C)(CC)NC(=O)[C@H](C)NC(=O)CCNC(=O)C(C)(C)NC(=O)[C@H](C)NC(=O)[C@@H]3CCCN3C(=O)[C@@](C)(CC)NC(=O)[C@H](Cc3ccccc3)NC(=O)C3CCCN3C(=O)C(C)(C)NC(=O)C3CCCN3C(=O)C(C)(C)NC(C)=O)c(=O)oc2c1 (some centres undefined) ?
Output: true
